Target: T1, recombinant Ovr110-hFc encoded by Ovr110 Construct 2 (human)
T1 construct: Captured on plates by goat anti-human IgG Fc; also called Ovr110-hFc (with TM)
T1 chain: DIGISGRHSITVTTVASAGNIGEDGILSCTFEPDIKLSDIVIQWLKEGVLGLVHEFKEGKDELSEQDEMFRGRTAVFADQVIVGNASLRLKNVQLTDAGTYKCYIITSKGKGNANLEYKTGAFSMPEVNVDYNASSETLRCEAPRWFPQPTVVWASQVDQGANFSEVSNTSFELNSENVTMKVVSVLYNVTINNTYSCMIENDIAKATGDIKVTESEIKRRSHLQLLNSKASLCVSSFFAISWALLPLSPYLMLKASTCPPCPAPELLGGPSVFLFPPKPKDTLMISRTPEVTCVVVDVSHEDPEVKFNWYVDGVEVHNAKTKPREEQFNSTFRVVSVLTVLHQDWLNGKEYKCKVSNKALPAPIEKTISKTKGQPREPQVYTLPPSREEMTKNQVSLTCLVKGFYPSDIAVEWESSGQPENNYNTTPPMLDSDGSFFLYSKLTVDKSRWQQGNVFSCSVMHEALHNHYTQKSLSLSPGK
Experiment: competition ELISA; row = unlabeled blocking MAb; competitor = biotinylated detecting MAb Q19.6
The reader will find reported signal/noise ratio values listed item by item below.
// no unit string in output, number only

# binder Ovr110.Q19 (antibody, IgG1, V domains shown, Mouse hybridoma MAb; also called Q19.6; Ovr110.Q19.6) VH: DVLLQESGPGLVKASQSLSLTCSVTGYSITSGYFWNWIRQFPGNKLEWMGYISYDGGNSYNPSLKNRISITRDTSKNQFFLRMKSVTAEDTATYYCARKALWLRFDYWGQGTTLTVSS VL: EIVLTQSPAIMSVYLGEKVTMTCSASLSVSYMHWYQQKSSTSPKLWIYDTSKVASGVPGRFSGSGSGNSYSLTISSMEAEDVATYYCFQGSGYPFTFGSGTKLEIKR ; its signal/noise ratio = 1

# binder Ovr110.Q27 (antibody, IgG1, V domains shown, Mouse hybridoma MAb; also called Q27.4; Q27.2) VH: QVQPQQSGAELARPGASVKLSCKASGYTFTTYWMQWVKQRPGQGLEWIGAIYPGDGDTRYTQKFKGKATLTADKSSSTAYMQLSSLASEDSAVYYCAINWGYAMDYWGQGTSVTVSS VL: DIVLTQSHKIMSTSVGDRVSITCKASQDVRTAVAWYQQKPGQSPKLLIKSASYRYTGVPDRFSGSGSGTDFTFTISSVQAEDLAVYYCQQHYSNPTFGGGTKLEIKR ; its signal/noise ratio = 6.5

// below: signal/noise ratio requested for another binder
# binder Ovr110.Q12 (antibody, IgG1, V domains shown, Mouse hybridoma MAb; also called Q12.2; Ovr110.Q12.2) VH: QVQLQQPGAELVKPGATVKLSCKTSGYTFTSYWMHWVKQRPGQGLEWIGEIDPSDSYTNYNQKFKGKATLTVDTSSTTAYMQLSSLTSEDSAVYYCAREYGNNDAMDYWGQGTSVTVSS VL: QIVLTQSPAIMSASPGEKVTMTCSASSGISYMHWYQQKPGTTPKRWIYDASKLASGVPSRFSGSGSGTSYSLTISSMEAEDAATYYCHQRRSYPFTFGSGTKLEIKR ; its signal/noise ratio = 1.1

The measurements presented in this section are drawn from patent US20100136009A1.
